Assay procedure: Human HepG2 cell viability assay in 384 well format
Type: toxicity, cell-based
Parameters: dose 125 nL, time 70.5 hour; concentration not given beside the values
Measurement conditions: HepG2 cells, read-out: Inhibition
Reported cytotoxicity at 70.5 h values for the following molecules.
Report only the number, with the unit % understood.

# count of solved cases: 3
- COc1ccccc1C(O)CNC(=O)NCc1cc[nH]n1 (stereo unspecified): -4.26
- COc1ccc(NC(=O)N2CCC(c3nnc[nH]3)CC2)cc1C: -3.69
- Cc1csc2c(=O)n3c(nc12)CCN(C(=O)c1cccnc1)CC3: -19.9

// CN(C)Cc1cc(C2CCN(C(=O)C3CCCNC3)CC2)nn1C (stereo unspecified) : cytotoxicity at 70.5 h value = -5.29

Record summary for `CCC(CC)C(=O)N1CCc2nc(N3CCCC3)nc(C)c2CC1` : reported cytotoxicity at 70.5 h = -12.2

###

Items are presented alongside their recorded cytotoxicity at 70.5 h.
Assay procedure: Human HepG2 cell viability assay in 384 well format
Type: toxicity, cell-based
Design: dose 125 nL, time 70.5 hour; concentration not given beside the values
Measurement conditions: HepG2 cells, read-out: Inhibition
Please respond with the number in % and leave the unit unwritten.

• Cc1nc2c(Nc3cccc(C#N)c3)nc(N)nc2n1C = 4
• CCn1c(C)nnc1CN(C)C1CCN(Cc2sc(C)nc2C)C1 (stereo not given) = 3.85
• CN1Cc2cc(F)ccc2N(CC(C)(C)O)CCC1=O = 8.74
• Cc1ccc(N2CCc3sc(C(=O)NCCN4CCCC4)cc32)nn1 = -0.377
• CN(C)C(=O)c1cccc(C2CCN(c3ncccn3)CC2)n1 = -4.03
• Fc1cccc(C2CCCCN2Cc2nc(-c3cnccn3)no2)c1 (stereo not given) = -1.63
• O=C1CC(C(=O)Nc2nnc(-c3ccoc3)[nH]2)c2ccccc2N1 (stereo not given) = 0.202
• O=C(NCc1nnc2n1CCC2)N1CCC2(CCCCC2)CC1 = -12.2

Data point: `CC(=O)c1ccc(-n2c(C)cn(CCC(=O)NC(N)=O)c2=O)cc1` ; cytotoxicity at 70.5 h = -14.8

The recorded cytotoxicity at 70.5 h for CSCCC1c2nc[nH]c2CCN1Cc1ccnc2ccccc12 (stereo not given) is -12.3

Record Cc1ccc(N2CCCC(NCc3ccsc3)C2)nn1 (stereo not given) , field cytotoxicity at 70.5 h: -4.89

Note to self: cytotoxicity at 70.5 h recorded for `CCn1ncc(S(=O)(=O)NC2(CN3CCOCC3)CCCCC2)c1C` was -4.76

The value of cytotoxicity at 70.5 h measured for the compound `c1nn(C2CCCCC2)cc1-c1cncn1CCCN1CCCCC1` turned out to be -0.625

Briefly, cytotoxicity at 70.5 h measured for `CC(C)OCCC(=O)N(C)CCCc1cc(-c2ccccc2)no1` : 42.3

Query Cc1nc(CN(C)CC2CCCN2c2cccnn2)nc2ccccc12 (stereo not given) yields cytotoxicity at 70.5 h of -5.19

cytotoxicity at 70.5 h recorded for this compound, CC(C)NC(=O)C1CN(C(=O)c2ccc(F)cc2)CC12CCOCC2 (stereo not given) , is 23.6

Please fill in: cytotoxicity at 70.5 h reported for CC(=O)NCCC1CCCCN1S(=O)(=O)c1cccc(Cl)c1 (stereo not given) = 36.4

Query `Cc1cc(C(=O)O)c2c(Br)cccc2n1` yields cytotoxicity at 70.5 h of -13.5

Note to self: cytotoxicity at 70.5 h recorded for `O=C(CNc1ccc(OCC2CCOCC2)cc1)NCc1ccco1` was -20.8

###

Entries and their cytotoxicity at 70.5 h
Assay procedure: Human HepG2 cell viability assay in 384 well format
Assay type: toxicity, cell-based
Set-up: dose 125 nL, time 70.5 hour; concentration not given beside the values
Measurement conditions: HepG2 cells, read-out: Inhibition

• OCc1cc(C2CCCN2c2ncccn2)n[nH]1 (stereo unspecified) = 0.468%
• O=C(Nc1ccc(F)cc1-c1nc(C2CC2)no1)N1CC[C@@H](O)C1 = -6.37%
• c1ccc(-c2cc(CN3CCCCCC3c3ccco3)on2)nc1 (stereo unspecified) = -4.66%
• CN(C)CCNC(=O)c1ccc(OC2CCN(C3CCC3)CC2)c(Cl)c1 = -5.59%
• O=C(c1ccc(F)cc1)N1CC[C@H]2[C@H]1CCN2CC1CC1 = -17.1%

Switching to the query record.
Lab book: cytotoxicity at 70.5 h of `CCn1c(Cn2cncn2)nnc1C1CCN(C[C@H]2[C@@H]3CNC[C@@H]32)CC1` noted as -20.4%

###

Assay procedure: Human HepG2 cell viability assay in 384 well format
Assay type: toxicity, cell-based
Set-up: dose 125 nL, time 70.5 hour; concentration not given beside the values
Measurement conditions: HepG2 cells, read-out: Inhibition
Measured endpoint: cytotoxicity at 70.5 h
State the value, then name its unit.

Solved cases (2 shown):
• CS(=O)(=O)NCc1cnc2n1CCN(Cc1cccnc1)CC2 = -9.03%
• O=C(NC[C@]12COC[C@H]1CN(Cc1cccnc1)C2)C1CCC1 = -4.65%

Lab note: measured cytotoxicity at 70.5 h of `Cc1ccc(CN2CCc3ncnc(-c4ccoc4)c3CC2)o1` was 2.47%

The recorded cytotoxicity at 70.5 h for entry `CCn1c(-c2ccccc2)nn(CC(=O)NCCc2ccc(C)s2)c1=O` equals 13.9%

Value of cytotoxicity at 70.5 h reported for the molecule `Cc1ccc(CN(Cc2[nH]cnc2C)C2CC(C)(C)NC(C)(C)C2)o1` is 17.5%

###

Assay procedure: Human HepG2 cell viability assay in 384 well format
Type: toxicity, cell-based
Set-up: dose 125 nL, time 70.5 hour; concentration not given beside the values
Measurement conditions: HepG2 cells, read-out: Inhibition
Measured endpoint: cytotoxicity at 70.5 h (%)
Output spec: scalar in %, unitless text.

* CN1CCOC(CN(C(=O)CCc2cnn(C)c2)c2nccs2)C1 (stereo unspecified) | -5.55

The value of cytotoxicity at 70.5 h measured for the compound c1cnc(N2CCCC3(CCN(c4ncccn4)C3)C2)nc1 (stereo unspecified) turned out to be 26.5

Sample OC(CN1CCC(c2ccn[nH]2)CC1)c1cccc(C(F)(F)F)c1 (stereo unspecified) ; cytotoxicity at 70.5 h observed: -7.35

Quick note, cytotoxicity at 70.5 h for `Cc1ccc2c(n1)N(Cc1cccnc1)CCN(C(=O)C1CC=CC1)C2` landed at -9.79

What the record says about COCc1nc2n(n1)CCCC2Nc1nc(C2CC2)ns1 (stereo unspecified) : cytotoxicity at 70.5 h is 1.93

Cc1cc(C)c2nc(CNC3CCCNC3=O)cc(O)c2c1 (stereo unspecified) has a reported cytotoxicity at 70.5 h of -6.5

The value of cytotoxicity at 70.5 h measured for the compound Cc1cc(C)n(CC(C)NC(=O)C(C)(C)c2ccccc2F)n1 (stereo unspecified) turned out to be 6.99

Form field cytotoxicity at 70.5 h, entry `CC1CCN(C(=O)Cc2ccc(S(=O)(=O)C(F)F)cc2)CC1` : -11

cytotoxicity at 70.5 h in this record for `CCS(=O)(=O)NC[C@]12COC[C@H]1CN(Cc1cc(C)on1)C2` : -6.04

For this compound ( c1cc(CN2CCOC(Cn3cccn3)C2)c2c(c1)OCCO2 (stereo unspecified) ), measured cytotoxicity at 70.5 h is -14.1

# cytotoxicity at 70.5 h (compound: Cc1nc(C)n(CC2CCCCN2Cc2nnc(C3CC3)o2)n1 (stereo unspecified) ) is 0.151

###

Assay procedure: Human HepG2 cell viability assay in 384 well format
Format: toxicity, cell-based
Set-up: dose 125 nL, time 70.5 hour; concentration not given beside the values
Measurement conditions: HepG2 cells, read-out: Inhibition
Measured endpoint: cytotoxicity at 70.5 h (%)
# number only, unit % dropped from output

Guide cases for cytotoxicity at 70.5 h, answers given:
• O=C(CN1C(=O)CCC1=O)NCc1cc(C2CC2)n(C2CCCC2)n1 = -2.61
• CCCC(O)CN1CCC(=O)N(CC2CC2)Cc2cc3c(cc21)OCO3 (stereo unspecified) = 25
• Cc1ccc(OC2(C(=O)N(C)Cc3ccoc3)CCNCC2)cc1 = -16.8
• O=C(CCc1nnc(-c2ccccc2)o1)N1CCCC1c1ccc[nH]1 (stereo unspecified) = -3.43
• Cc1ccc(-c2noc(CN3CCOC(Cn4cncn4)C3)n2)cc1 (stereo unspecified) = -7.15

Looking up `CCN1C[C@H]2C[C@H](C(=O)Nc3ccccc3)[C@@H](C1)O2` , I found its cytotoxicity at 70.5 h recorded as 16.4

###

Assay procedure: Human HepG2 cell viability assay in 384 well format
Format: toxicity, cell-based
Design: dose 125 nL, time 70.5 hour; concentration not given beside the values
Measurement conditions: HepG2 cells, read-out: Inhibition
Measured endpoint: cytotoxicity at 70.5 h (%)
Use % as the unit, but write only the number.

Sample records with cytotoxicity at 70.5 h:
• CC(C)(CO)NCc1nn(Cc2ccccc2)nc1-c1ccccc1 = 27.2
• Cc1cc(C)n(C2CCN(S(=O)(=O)N3CCOCC3)CC2)n1 = -6.85

Notebook: `Cc1cc(C(=O)N2C[C@@H]3OCCN(CCN4CCCC4)[C@@H]3C2)c(C)o1` , cytotoxicity at 70.5 h read as -7.77

Lab note: `Cc1ccc(F)cc1CC(=O)N1CC[C@@]2(O)CCNC[C@H]2C1` gave cytotoxicity at 70.5 h of -5.81
